Cited source for all entries: ChEMBL document CHEMBL1148955

For each record, write down the corresponding Activity.
# Test system: PBMC
# testSummary: Induction of IL12 production in human PBMC at 1 ug/ml after 48 hrs by ELISA
# Format: functional

Use the examples below as a reference point.
{"compound": "CC1(C)[C@@H](O)CC[C@]2(C)[C@H]3CC=C4[C@@H]5C[C@](C)(C(=O)O)C[C@H](O)[C@]5(C)CC[C@@]4(C)[C@]3(C)CC[C@@H]12 [MAYTENFOLIC ACID]", "valueType": "Activity", "result": "<7.8 pg/mL"}
{"compound": "COc1c(O)cc(-c2oc3cc(O)cc(O)c3c(=O)c2O)cc1O [MEARNSETIN]", "valueType": "Activity", "result": "14.3 pg/mL"}
{"compound": "CC(=O)O[C@@H]1[C@@H]2[C@@H](OC(C)=O)[C@@]34O[C@@]2(C)COC(=O)c2cccnc2C(C)C(C)C(=O)O[C@@H]([C@H](O)[C@H](OC(C)=O)[C@@]3(COC(=O)c2ccccc2)[C@@H]1OC(C)=O)[C@]4(C)O (some centres undefined)", "valueType": "Activity", "result": "<7.8 pg/mL"}
{"compound": "CC(=O)OC[C@]12[C@H](OC(=O)c3ccccc3)[C@H](OC(C)=O)[C@@H]3[C@@H](OC(C)=O)[C@@]14O[C@@]3(C)COC(=O)c1cccnc1C(C)C(C)C(=O)O[C@@H]([C@H](OC(C)=O)[C@@H]2OC(=O)c1ccccc1)[C@]4(C)O (some centres undefined) [EBENIFOLINE E III]", "valueType": "Activity", "result": "<7.8 pg/mL"}
{"compound": "C[C@H]1C(=O)CC[C@@H]2[C@]1(C)CC[C@H]1[C@@]2(C)CC[C@@]2(C)[C@@H]3CC(C)(C)CC[C@]3(CO)CC[C@]12C [CANOPHYLLOL]", "valueType": "Activity", "result": "47.3 pg/mL"}
{"compound": "CC(=O)OC[C@]12[C@H](OC(C)=O)[C@H](OC(C)=O)[C@@H]3[C@@H](OC(=O)c4ccccc4)[C@@]14O[C@@]3(C)COC(=O)c1cccnc1C(C)C(C)C(=O)O[C@@H]([C@H](OC(C)=O)[C@@H]2OC(=O)c1ccccc1)[C@]4(C)O (some centres undefined)", "valueType": "Activity", "result": "17.3 pg/mL"}
{"compound": "CC1(C)[C@H](O)CC[C@]2(C)[C@H]3CC=C4[C@@H]5C[C@](C)(C(=O)O)C[C@@H](O)[C@]5(C)CC[C@@]4(C)[C@]3(C)CC[C@@H]12", "valueType": "Activity", "result": "<7.8 pg/mL"}
{"compound": "COc1c(O)cc([C@H]2Oc3cc(O)cc(O)c3C[C@H]2O)cc1O", "valueType": "Activity", "result": "<7.8 pg/mL"}
{"compound": "C[C@H]1[C@H](C)CC[C@]2(CO)CC[C@]3(C)C(=CC[C@@H]4[C@@]5(C)CC[C@H](OC(=O)/C=C/c6ccc(O)c(O)c6)C(C)(C)[C@@H]5CC[C@]43C)[C@H]12", "valueType": "Activity", "result": "<7.8 pg/mL"}
{"compound": "C[C@@H]1O[C@@H](O[C@@H]2[C@@H](O)[C@H](OCCc3ccc(O)c(O)c3)O[C@H](COC(=O)/C=C/c3ccc(O)c(O)c3)[C@H]2O)[C@H](O)[C@H](O)[C@H]1O [ISOACTEOSIDE]", "valueType": "Activity", "result": "<7.8 pg/mL"}

Give me Activity for each of these compounds, listed below.
1. COc1c(O)cc([C@H]2Oc3c(c(O)cc(O)c3[C@H]3c4c(O)cc(O)cc4O[C@H](c4ccc(O)cc4)[C@@H]3O)C[C@H]2O)cc1O [OURATEAPROANTHOCYANIDIN A]
2. COc1ccc(C(=O)O[C@@H]2C[C@](C)(O)[C@H]3[C@H](O[C@@H]4O[C@H](CO)[C@@H](O)[C@H](O)[C@H]4O)OC=C[C@H]32)cc1OC

Return:
<7.8 pg/mL
27.2 pg/mL

Give me Activity for each of these compounds, listed below.
1. COc1c(O)cc([C@H]2Oc3cc(O)cc(O)c3C(=O)[C@H]2O)cc1O
2. COc1cc(C(=O)O[C@@H]2C[C@](C)(O)[C@H]3[C@H](O[C@@H]4O[C@H](CO)[C@@H](O)[C@H](O)[C@H]4O)OC=C[C@H]32)ccc1O

Return:
<7.8 pg/mL
<7.8 pg/mL
